Data provenance is patent US20250341517A1.

target: T1, Anti-hCG antibody(m); experiment: labelled peptide on antibody immobilised on microplate; antigen hCG
T1 construct: also called mouse IgG (hCG)
Ends that are not written are not given here. FAM = carboxyfluorescein (FAM) fluorescent label
Collected fluorescence intensity at bottom (B) of microplate before antigen binding values appear next to each entry.
// no unit, no text: just the number

Field: example entries. Status: answers known.
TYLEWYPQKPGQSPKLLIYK (not fully specified (N-terminus), Synthetic 20-mer homologous to the FR2 region of the light chain; The label differs between experiments; also called L1 switching peptide; first peptide compound L1) [L1 peptide] | 4630
{FAM}-VYYCFQGSHVPFTK (Synthetic 14-mer homologous to the FR3 or FR4 region of the light chain; also called L2 switching peptide; second peptide compound L2) [L2 peptide] | 33200
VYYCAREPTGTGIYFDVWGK (not fully specified (N-terminus), Synthetic 20-mer homologous to the FR3 or FR4 region of the heavy chain; The label differs between experiments; also called H2 switching peptide; fourth peptide compound H2) [H2 peptide] | 23300

# ---- query binder ----
# fluorescence intensity at bottom (B) of microplate before antigen binding lookup, item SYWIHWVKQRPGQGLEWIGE (not fully specified (N-terminus), Synthetic 20-mer homologous to the FR2 region of the heavy chain; The fluorescent label differs between experiments; also called H1 switching peptide; third peptide compound H1) [H1 peptide]
5650
